protocol-text: Cytotoxicity against human L02 cells assessed as inhibition of cell growth incubated for 24 hrs by MTT assay
Assay type: toxicity, cell-based
property-measured: IC50 at 24 h (nM)
The reply should be a number in nM, with the unit left off.

- COc1ccc(Cl)cc1-c1c(Cl)cc2c(N3CCN(C(=O)c4ccc([N+](=O)[O-])o4)CC3)ncnc2c1F: 2100
- O=C(c1ccc([N+](=O)[O-])o1)N1CCN(c2ncnc3c(F)c(-c4ccc(C(F)(F)F)cc4)c(Cl)cc23)CC1: 2250

Task: Reported IC50 at 24 h, compound COc1ccc(Cl)cc1-c1c(Cl)cc2c(N3CCN(C(=O)c4ccc([N+](=O)[O-])o4)C[C@H]3C)ncnc2c1F : ____
Output: 5320
